Provenance of the data: patent US20210024646A1

subject-of-test: T1, Carbon-terminal polyhistidine-labeled recombinant cynomolgus monkey CD73 enzyme (cynomolgus monkey, UniProt A0A2K5V5U7 1-547)
T1 chain: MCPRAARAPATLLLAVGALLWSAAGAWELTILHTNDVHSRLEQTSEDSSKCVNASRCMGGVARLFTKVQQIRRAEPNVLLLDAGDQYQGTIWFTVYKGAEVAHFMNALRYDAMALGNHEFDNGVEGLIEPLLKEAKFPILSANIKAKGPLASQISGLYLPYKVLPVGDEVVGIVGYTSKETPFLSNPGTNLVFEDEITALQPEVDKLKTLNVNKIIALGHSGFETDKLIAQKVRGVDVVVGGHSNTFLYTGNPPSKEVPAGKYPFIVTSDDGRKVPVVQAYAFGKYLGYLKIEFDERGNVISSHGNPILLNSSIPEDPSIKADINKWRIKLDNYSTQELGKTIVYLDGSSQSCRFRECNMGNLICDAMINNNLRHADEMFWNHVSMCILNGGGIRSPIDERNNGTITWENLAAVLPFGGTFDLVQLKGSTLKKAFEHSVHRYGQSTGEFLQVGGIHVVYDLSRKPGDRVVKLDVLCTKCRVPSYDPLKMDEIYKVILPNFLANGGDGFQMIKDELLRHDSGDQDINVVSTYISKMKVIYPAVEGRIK
experimental-details: enzyme inhibition; left table
experimental-readout: pIC50
Numbers only, as −log10 of the molar value.

- binder: "Hu001c-14 (antibody, V domains shown) VH: QVQLVQSGAEVKKPGASVKVSCKTSGYTFTNYYIYWVRQAPGQRLEWMGWIYPGNLNIKYNEKFKGRVTITADTSASTAYMELSSLRSEDTAVYYCARDDNYAWFAYWGQGTLVTVSS VL: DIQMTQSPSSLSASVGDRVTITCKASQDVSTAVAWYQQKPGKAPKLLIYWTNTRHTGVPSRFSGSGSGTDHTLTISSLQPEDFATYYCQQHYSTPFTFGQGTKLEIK"
  endpoint-result: 9.96
- binder: "Hu001c-23 (antibody, V domains shown) VH: QVQLVQSGAEVKKPGASVKVSCKASGYTFTNYYIYWVKQRPGQGLEWIGWIYPGNLNIKYNEKFKGRVTITADKSASTAYMELSSLRSEDTAVYYCARDDNYAWFAYWGQGTLVTVSS VL: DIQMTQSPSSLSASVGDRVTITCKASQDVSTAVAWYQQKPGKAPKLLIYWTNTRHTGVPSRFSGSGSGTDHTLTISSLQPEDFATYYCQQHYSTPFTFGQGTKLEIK"
  endpoint-result: 10.15
- binder: "Hu002c-3 (antibody, V domains shown) VH: QVQLVQSGAEVKKPGASVKVSCKASGYTLTSYWMHWVRQAPGQGLEWMGEINPSQGRSNYNEKFKSRVTMTRDTSTSTVYMELSSLRSEDTAVYYCARRGVSGNYFDYWGQGTLVTVSS VL: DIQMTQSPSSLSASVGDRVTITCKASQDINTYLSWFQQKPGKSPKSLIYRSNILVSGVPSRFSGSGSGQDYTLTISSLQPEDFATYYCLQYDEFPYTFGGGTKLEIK"
  endpoint-result: 10.34
- binder: "Hu002c-4 (antibody, V domains shown) VH: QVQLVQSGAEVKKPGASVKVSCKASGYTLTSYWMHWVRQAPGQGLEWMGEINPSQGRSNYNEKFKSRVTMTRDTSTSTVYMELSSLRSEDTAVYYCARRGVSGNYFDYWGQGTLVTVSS VL: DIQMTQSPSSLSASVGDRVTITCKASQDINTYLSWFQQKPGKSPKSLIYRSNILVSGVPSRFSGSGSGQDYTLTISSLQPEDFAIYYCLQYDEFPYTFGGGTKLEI"
  endpoint-result: 10.33

Return reported pIC50; argument: Hu001c-25 (antibody, V domains shown) VH: QVQLVQSGAEVKKPGASVKVSCKASGYTFTNYYIYWVRQAPGQRLEWIGWIYPGNLNIKYNEKFKGRVTITADKSASTAYMELSSLRSEDTAVYYCARDDNYAWFAYWGQGTLVTVSS VL: DIQMTQSPSSLSASVGDRVTITCKASQDVSTAVAWYQQKPGKSPKLLIYWTNTRHTGVPSRFSGSGSGTDHTLTISSLQPEDFATYYCQQHYSTPFTFGQGTKLEIK 9.47
